Molecular target: Signal transducer and activator of transcription 6 (Homo sapiens, UniProt P42226)
Sequence (P42226 whole entry): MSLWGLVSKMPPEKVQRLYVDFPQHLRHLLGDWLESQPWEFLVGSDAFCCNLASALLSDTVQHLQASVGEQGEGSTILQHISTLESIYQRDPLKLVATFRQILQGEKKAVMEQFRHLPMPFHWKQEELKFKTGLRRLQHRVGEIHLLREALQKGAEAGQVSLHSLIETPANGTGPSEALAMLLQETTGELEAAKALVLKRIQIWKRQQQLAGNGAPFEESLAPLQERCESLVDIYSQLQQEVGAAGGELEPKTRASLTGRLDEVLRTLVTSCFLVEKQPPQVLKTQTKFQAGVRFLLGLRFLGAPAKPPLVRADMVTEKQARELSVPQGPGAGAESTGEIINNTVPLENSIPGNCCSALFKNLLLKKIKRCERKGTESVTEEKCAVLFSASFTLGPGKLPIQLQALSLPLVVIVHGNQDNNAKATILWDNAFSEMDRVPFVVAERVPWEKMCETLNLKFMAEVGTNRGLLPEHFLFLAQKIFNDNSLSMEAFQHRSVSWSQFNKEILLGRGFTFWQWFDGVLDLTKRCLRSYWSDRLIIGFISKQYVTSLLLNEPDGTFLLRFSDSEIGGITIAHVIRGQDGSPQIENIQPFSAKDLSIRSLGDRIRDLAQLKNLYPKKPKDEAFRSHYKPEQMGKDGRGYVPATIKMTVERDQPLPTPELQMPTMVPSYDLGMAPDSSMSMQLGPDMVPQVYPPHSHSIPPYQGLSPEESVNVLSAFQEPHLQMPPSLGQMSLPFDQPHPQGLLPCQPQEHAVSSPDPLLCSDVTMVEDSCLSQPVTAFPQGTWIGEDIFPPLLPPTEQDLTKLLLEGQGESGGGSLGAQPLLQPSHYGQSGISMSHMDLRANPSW
A collection of molecules and their measured pKi
Expect pKi as a plain number equal to -log10 of the molar concentration.

Report pKi for CC(C)(C)[C@H](NC(=O)c1cc2cc(C(F)(F)P(=O)(O)O)ccc2s1)C(=O)N1Cc2ccccc2C[C@H]1C(=O)N1CCO[C@H](c2ccccc2)C1 please.
7.08

For the molecule shown here, CC(C)(C)[C@H](NC(=O)c1cc2cc(C(F)(F)P(=O)(O)O)ccc2s1)C(=O)N1CCCC[C@H]1C(=O)N1CCC[C@H](c2ccccc2)C1 , give the reported pKi.
6.80

What pKi value was documented for this molecule, CC(C)(C)[C@H](NC(=O)c1cc2cc(C(F)(F)P(=O)(O)O)ccc2s1)C(=O)N1CCC[C@H]1C(=O)N1CCOC(c2ccc(F)cc2F)C1 (stereo partly drawn) ?
6.38

Report pKi for CC(C)(C)[C@H](NC(=O)c1cc2cc(C(F)(F)P(=O)(O)O)ccc2s1)C(=O)N1Cc2ccccc2[C@H]1C(=O)N1CCC[C@H](c2ccccc2)C1 please.
7.38

// query pKi value for entry CC(C)(C)[C@H](NC(=O)c1cc2cc(C(F)(F)P(=O)(O)O)ccc2s1)C(=O)N1CCC[C@H]1C(=O)N1CCOC(C2CCCCC2)C1 (stereo partly drawn)
6.30

Any idea what pKi was measured for CC(C)(C)[C@H](NC(=O)c1cc2cc(C(F)(F)P(=O)(O)O)ccc2s1)C(=O)N1Cc2ccccc2C[C@H]1C(=O)N1CCC[C@H](c2ccccc2)C1 ?
6.72

Which pKi value is on record for O=C(N[C@H](C(=O)N1CCC[C@H]1C(=O)N1CCO[C@H](c2ccccc2)C1)C1CCNCC1)c1cc2cc(C(F)(F)P(=O)(O)O)ccc2s1 ?
6.59

pKi for CC(C)(C)[C@H](NC(=O)c1cc2cc(C(F)(F)P(=O)(O)O)ccc2s1)C(=O)N1CCC[C@H]1C(=O)N1CCSC(c2ccccc2)C1 (stereo partly drawn) ?
7.10

Value lookup for pKi; key = CC(C)(O)[C@H](NC(=O)c1cc2cc(C(F)(F)P(=O)(O)O)ccc2s1)C(=O)N1CCC[C@H]1C(=O)N1CCO[C@H](c2ccccc2)C1
6.92

Look up pKi for this molecule: CC(C)(C)[C@H](NC(=O)c1cc2cc(C(F)(F)P(=O)(O)O)ccc2s1)C(=O)N1CCCCC[C@H]1C(=O)N1CCC[C@H](c2ccccc2)C1
6.70

Which pKi value belongs to O=C(N[C@@H](Cc1ccc(Br)cc1)C(=O)N1CCC[C@H]1C(=O)N1CCO[C@H](c2ccccc2)C1)c1cc2cc(C(F)(F)P(=O)(O)O)ccc2s1 ?
6.77

// query pKi value for entry CC[C@H](NC(=O)c1cc2cc(C(F)(F)P(=O)(O)O)ccc2s1)C(=O)N1CCC[C@H]1C(=O)N1CCO[C@H](c2ccccc2)C1
6.80

Which pKi reading was recorded for the molecule CC(C)(C)[C@H](NC(=O)c1cc2cc(C(F)(F)P(=O)(O)O)ccc2s1)C(=O)N1CCCC[C@H]1C(=O)N1CCO[C@H](c2ccccc2)C1 ?
6.96
